# AUC of viability dose-response curve annotations
# System: SEM cells
# Assay info: AUC of viability dose-response curve (% viability x log10 dose units); higher = less sensitive
# Study conditions: RPMI 5 mM glucose + 10% dialyzed FBS; 48 h
Form: value (number only, do not type unit).

Consider the reported AUC of viability dose-response curve for these molecules:
N#Cc1c(C2CCNCC2)cc(-c2c(O)cccc2OCC2CC2)nc1N
435
CC1=C(C)C2=C(S1)[N]3C(=NN=C3[C@H](CC(=O)OC(C)(C)C)/N=C2/C4=CC=C(Cl)C=C4)C
251
CC1OC(OC/2=C(/OC3=C(C(=CC(=C3)O)O)C2=O)C4=CC=C(O)C=C4)C(O)C(OC(C)=O)C1OC(C)=O (configuration not stated)
465

Now consider the entry below.
What value of AUC of viability dose-response curve has been reported for the following molecule? CC(C)(C)C1=NC2=C([NH]1)C3=CC=C(F)C=C3C4=C2\C=C/NC4=O
384

---

# Test system: SEM cells
# Assay info: cell viability relative to DMSO control; higher = less cytotoxic
# Study conditions: RPMI 5 mM glucose + 10% dialyzed FBS; 48 h; 5.12 µM
Response field label: string, one of Satisfied (cell viability strictly below 90%) or Not satisfied.

O=C(Oc1ccc([N+](=O)[O-])cc1)N1CCN(Cc2cccc(Oc3ccccc3)c2)CC1
Not satisfied
COc1ccc(-c2c(-c3ccc(O)cc3O)n[nH]c2C)cc1
Satisfied
COC1=C(OC)C(=O)C(C/C=C(\C)CC/C=C(\C)CC/C=C(\C)CC/C=C(\C)CC/C=C(\C)CC/C=C(\C)CC/C=C(\C)CC/C=C(\C)CC/C=C(\C)CCC=C(C)C)=C(C)C1=O
Not satisfied

Please determine if CC1=C(C)C2=C(S1)[N]3C(=NN=C3[C@H](CC(=O)OC(C)(C)C)/N=C2/C4=CC=C(Cl)C=C4)C is below 90% in terms of cell viability.
Satisfied

Please determine if N#Cc1c(C2CCNCC2)cc(-c2c(O)cccc2OCC2CC2)nc1N is below 90% in terms of cell viability.
Satisfied

---

# cell viability annotations
# System: NOMO1
# Assay info: cell viability relative to DMSO control; higher = less cytotoxic
# Study conditions: RPMI 5 mM glucose + 10% dialyzed FBS; 48 h; 0.0211 µM
Field: numeric (%). Do not append units.

Consider the reported cell viability for these compounds:
CCOC(=O)c1ccc(C#Cc2ccc3c(c2)C(C)(C)CCS3)nc1
109
C=C1C[C@@]2(O)O[C@@]3(C[C@H]2C(C)C)[C@@H](C)CC[C@@H]13
109
c1ccc2c(-c3cnn4cc(-c5ccc(N6CCNCC6)cc5)cnc34)ccnc2c1
120
CC1=C2N=C([NH]C2=CC(=C1)N3CCOCC3)\C4=C(NC[C@@H](O)C5=CC=CC(=C5)Cl)\C=C/NC4=O
91.9
CC(Oc1ccc(O)cc1)(P(=O)(O)O)P(=O)(O)O
93

What value of cell viability has been reported for the following compound? C[C@H]1CCC/C=C/C2C[C@H](O)C[C@H]2[C@H](O)/C=C/C(=O)O1 (some centres undefined)
5.74

What value of cell viability has been reported for the following compound? COc1cc2ncnc(Nc3ccc(F)c(Cl)c3)c2cc1OCCCN1CCOCC1
112

What value of cell viability has been reported for the following compound? Cl.Cl.Fc1ccc(C(OCCN2CCN(CCCc3ccccc3)CC2)c2ccc(F)cc2)cc1
126

What value of cell viability has been reported for the following compound? O=P(O)(O)C(O)(Cc1cccnc1)P(=O)(O)[O][Na] (centres undefined)
25.2

---

# Test system: P12-Ichikawa
# Assay info: AUC of viability dose-response curve (% viability x log10 dose units); higher = less sensitive
# Study conditions: RPMI 5 mM glucose + 10% dialyzed FBS; 48 h
Readout name: AUC of viability dose-response curve

COC1=CC=C2C(=CC=NC2=C1)OC3=CC=C(NC(=O)\C4=C(C)\N(CC(C)(C)O)N(C4=O)C5=CC=CC=C5)C=C3F
469
CN[C@@H]1CN(C[C@H]1OC)C2=NC3=C(C=C2)C(=O)C(=C\N3C4=NC=CS4)/C(O)=O
389
CCCCCCCCCCCCCCCC(=O)OC[C@@H](NC(=O)C(Cl)Cl)[C@H](O)c1ccc([N+](=O)[O-])cc1
461
CC1(C)OC/2=C(\[C@H](NCC3=CC=CC=C3)[C@@H]1O)C(=O)C4=CC=CC=C4C2=O
416
Cn1cc(-c2ccncc2)c(-c2ccc(OCc3ccc4ccccc4n3)cc2)n1
440
COc1ccc2cccc(CCNC(C)=O)c2c1
460

What value of AUC of viability dose-response curve has been reported for the following compound? C[Se]CCC(N)C(=O)O (centres undefined)
388

What value of AUC of viability dose-response curve has been reported for the following compound? O=C(NCc1ccccc1)[C@H](Cc1ccccc1)NC(=O)[C@H]1O[C@@H]1C(=O)NCCc1ccc(O)cc1
463

What value of AUC of viability dose-response curve has been reported for the following compound? Cn1cc(-c2ccc3ncc(Cc4ccc5ncccc5c4)n3n2)cn1
470

---

# System: NOMO1
# Assay info: cell viability relative to DMSO control; higher = less cytotoxic
# Study conditions: RPMI 5 mM glucose + 10% FBS; 48 h; 0.00234 µM
# cell viability annotations
Field: numeric (%). Do not append units.

What value of cell viability has been reported for the following molecule? C[C@H]1[C@@H](CC(C[C@H]2O[C@@H]3O[C@]4(C)CC[C@H]5[C@H](C)CC[C@@H]([C@H]2C)[C@@]35OO4)C[S+](=O)([O-])c2ccc(COC(=O)N(C)C)cc2)O[C@@H]2O[C@]3(C)CC[C@H]4[C@H](C)CC[C@@H]1[C@@]24OO3
119

What value of cell viability has been reported for the following molecule? COc1ccc2cc(-c3[nH]c(-c4ccc([S+](C)[O-])cc4)nc3-c3ccncc3)ccc2c1 (configuration not stated)
103

What value of cell viability has been reported for the following molecule? CCOC(=O)c1ncn2c1CN(C)C(=O)c1cc(F)ccc1-2
130

What value of cell viability has been reported for the following molecule? Cc1cnc(Nc2ccc(OCCN3CCCC3)cc2)nc1Nc1cccc([S+](=O)([O-])NC(C)(C)C)c1
107

What value of cell viability has been reported for the following molecule? CC1=C(/C=C/C(C)=C/C=C/C(C)=C/C(=O)Nc2ccc(O)cc2)C(C)(C)CCC1
85.1

What value of cell viability has been reported for the following molecule? Cc1ccc(F)c(NC(=O)Nc2ccc(-c3cccc4[nH]nc(N)c34)cc2)c1
125

What value of cell viability has been reported for the following molecule? c1ccc2c(-c3cnn4cc(-c5ccc(N6CCNCC6)cc5)cnc34)ccnc2c1
91.3

---

# System: NOMO1
# Assay info: cell viability relative to DMSO control; higher = less cytotoxic
# Study conditions: RPMI 5 mM glucose + 10% dialyzed FBS; 48 h; 0.00702 µM
Readout name: cell viability (%)
Field: numeric (%). Do not append units.

What value of cell viability has been reported for the following compound? Cn1cc(-c2ccncc2)c(-c2ccc(OCc3ccc4ccccc4n3)cc2)n1
133

What value of cell viability has been reported for the following compound? Cc1c(OCC(F)(F)F)ccnc1C[S+]([O-])c1nc2ccccc2[nH]1 (centres undefined)
111

What value of cell viability has been reported for the following compound? Cn1cc(-c2ccc3ncc(Cc4ccc5ncccc5c4)n3n2)cn1
97.4

What value of cell viability has been reported for the following compound? CC1(C)CC(=O)c2c(C(F)(F)F)nn(-c3ccc(C(N)=O)c(NC4CCC(OC(=O)CN)CC4)c3)c2C1 (centres undefined)
109

---

# Tested on: SEM cells
# Assay info: cell viability relative to DMSO control; higher = less cytotoxic
# Study conditions: RPMI 5 mM glucose + 10% FBS; 48 h; 0.0632 µM
Readout name: cell viability (%)
Field: numeric (%). Do not append units.

Consider the reported cell viability for these molecules:
O=C(C1CCCCC1)N1CC(=O)N2CCc3ccccc3C2C1 (stereo not drawn)
116
COC1=CC=C(C=C1)C/2=C/OC3=CC(=CC=C3C2=O)O
133

Now consider the entry below.
What value of cell viability has been reported for the following molecule? CCOc1cc2c(c(F)c1OCC)C(=N)N(CC(=O)c1cc(N3CCOCC3)c(OC)c(C(C)(C)C)c1)C2
111

---

# Tested on: NOMO1
# Assay info: cell viability relative to DMSO control; higher = less cytotoxic
# Study conditions: HPLM + 10% dialyzed FBS; 48 h; 0.0211 µM
# cell viability annotations

Consider the reported cell viability for these compounds:
Clc1ccc(COC(Cn2ccnc2)c2ccc(Cl)cc2Cl)cc1 (configuration not stated)
115%
O=C(NC1CC1)c1cccc(-c2ccc3c(NC(=O)C4CC4)n[nH]c3c2)c1
121%
COc1ccc([C@@H]2CNC(=O)C2)cc1OC1CCCC1
111%
CCCCOc1ccc(C(=O)Nc2ccc(F)cc2F)cc1
96.3%
C[C@@H]1CN(CC(=O)N2CC(C)(C)c3ncc(Cc4ccc(F)cc4)cc32)[C@@H](CN2CCOC[C@H]2C)CN1
112%

What value of cell viability has been reported for the following compound? CC(=O)SCC(Cc1ccccc1)C(=O)NCC(=O)OCc1ccccc1 (configuration not stated)
104%

What value of cell viability has been reported for the following compound? N/C(=N\C(=O)c1nc(Cl)c(N)nc1N)NCc1ccccc1
118%

What value of cell viability has been reported for the following compound? CCCCc1oc2ccc(NS(C)(=O)=O)cc2c1C(=O)c1ccc(OCCCN(CCCC)CCCC)cc1
105%

What value of cell viability has been reported for the following compound? CC1=C(/C=C/C(C)=C/C=C/C(C)=C/C(=O)Nc2ccc(O)cc2)C(C)(C)CCC1
102%

What value of cell viability has been reported for the following compound? CC(C)[C@@H](N(CCCN)C(=O)C1=CC=C(C)C=C1)C/2=C(\CC3=CC=CC=C3)C(=O)C4=C(O2)C=C(Cl)C=C4
35.9%

What value of cell viability has been reported for the following compound? CCC(CC)[C@H](NC(C)=O)[C@@H]1[C@H](O)[C@@H](C(=O)O)C[C@H]1NC(=N)N
85%

What value of cell viability has been reported for the following compound? c1cc(OCCN2CCCCC2)cc(-c2n[nH]c3ccc(-c4nc[nH]n4)cc23)c1
127%
